assay: recombinant UMI read abundance after kanamycin selection (control-corrected) (log10(CPM+1)); higher = more efficient recombination; extreme values may be limits of the assay; sequences stand for … in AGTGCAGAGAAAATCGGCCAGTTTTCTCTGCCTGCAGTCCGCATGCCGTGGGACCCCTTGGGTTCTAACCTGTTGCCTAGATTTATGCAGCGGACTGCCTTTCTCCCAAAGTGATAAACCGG…AGGTTGGTTTCACT; site = the 11-nt donor
measurement.kind: recombinant UMI read abundance (log10)

Examples with their reported recombinant UMI read abundance (log10) follow.
- sequence.content: "AGCAAGACATGGACCGGTTTTCCCGGTAATCCGTATTTGCT (site AGGAAGACTTG)"
  recombinant UMI read abundance (log10): 0
- sequence.content: "ACATCAACATGGACCGGTTTTCCCGGTAATCCGTATTTGTG (site ACATCAACTCA)"
  recombinant UMI read abundance (log10): 0.878
- sequence.content: "CCTTTTACATGGACCGGTTTTCCCGGTAATCCGTATTTGCT (site CCATTTACTAG)"
  recombinant UMI read abundance (log10): 0
- sequence.content: "GATCGAGCATGGACCGGTTTTCCCGGTAATCCGTATTTGCA (site GATCGAGCTTG)"
  recombinant UMI read abundance (log10): 1.04
- sequence.content: "TATGAATCATGGACCGGTTTTCCCGGTAATCCGTATTTGCG (site TATGAATCTCG)"
  recombinant UMI read abundance (log10): 2.18
- sequence.content: "TGCTAGGCATGGACCGGTTTTCCCGGTAATCCGTATTTGGT (site TGATAGGCTAC)"
  recombinant UMI read abundance (log10): 0.00571

input: Note down recombinant UMI read abundance (log10) recorded for CAGGACTCATGGACCGGTTTTCCCGGTAATCCGTATTTGTC (site CAGGACTCTGA)
output: 3.38

input: // Input: CTTTTCTCATGGACCGGTTTTCCCGGTAATCCGTATTTGTA (site CTTCTCTCTTA) . Output its recombinant UMI read abundance (log10) only.
output: 0.274

input: Tell me its recombinant UMI read abundance (log10) given CACCCCTCATGGACCGGTTTTCCCGGTAATCCGTATTTGCC (site CACTCCTCTGG) as the entry.
output: 1.21

input: Report measured recombinant UMI read abundance (log10); entry is GGAGAGACATGGACCGGTTTTCCCGGTAATCCGTATTTGCC (site GGACAGACTGG)
output: 0

input: Identify the reported recombinant UMI read abundance (log10) for the following entry. AGTAGGACATGGACCGGTTTTCCCGGTAATCCGTATTTGCA (site AGTAGGACTTG)
output: 2.91

----------
assay: recombinant barcode read abundance after kanamycin selection (control-corrected) (log10(CPM+1)); higher = more efficient recombination; sequences stand for … in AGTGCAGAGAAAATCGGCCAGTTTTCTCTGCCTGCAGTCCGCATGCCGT…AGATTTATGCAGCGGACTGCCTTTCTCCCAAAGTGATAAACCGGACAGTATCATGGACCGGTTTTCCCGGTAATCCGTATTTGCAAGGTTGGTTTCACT; site = the 11-nt target
Below is a list of entries, each paired with its recorded recombinant barcode read abundance (log10) value.
Please respond with just the number, no unit label.

The cases that follow already have their recombinant barcode read abundance (log10) on record.
- sequence.content: "TCGATCCCTTGGGTTCTAACCTGTTGCCT (site TCTATCCCTAG)"
  readout.number: 0.0661
- sequence.content: "CTCATTCCTTGGGTTCTAACCTGTTGCGT (site CTCATTCCTAG)"
  readout.number: 0.0869
- sequence.content: "ATAAAGACTTGGGTTCTAACCTGTTGCCT (site ATGAAGACTAG)"
  readout.number: 0.212
- sequence.content: "GTATGATCTTGGGTTCTAACCTGTTGCAT (site GTATGTACTAT)"
  readout.number: 0.106

input: Give me measured recombinant barcode read abundance (log10), please, for this sequence: CTCTATTCTTGGGTTCTAACCTGTTGCAT (site CTCCATTCTAT)
output: 0.16
